test system: HepG2; assay: Mitochondrial toxicity in human HepG2 cells assessed as effect on mitochondrial cytochrome c oxidase subunit 2 DNA level incubated for 14 days by real-time PCR method; assay type: cell-based; settings: hepg2, 336 h
Measured CC50, listed per entry.

Below are worked cases with known answers.
MOLECULE	CC50
Nc1ccn([C@@H]2CS[C@H](CO)O2)c(=O)n1 [LAMIVUDINE]	> 10 µM
CCOC(=O)CCc1ccccc1O[P@@](=O)(N[C@@H](C)C(=O)OCC)OC[C@H]1O[C@@H](n2cnc3c(N)nc(N)nc32)[C@](C)(O)[C@H]1O	> 50 µM
C[C@@]1(O)[C@H](O)[C@@H](CO)O[C@H]1n1cnc2c(N)nc(N)nc21	> 50 µM
COc1nc(N)nc2c1ncn2[C@@H]1O[C@H](COP(=O)(N[C@@H](C)C(=O)OCC(C)(C)C)Oc2cccc3ccccc23)[C@@H](O)[C@@]1(C)O (some centres not stated) [BMS-986094]	4.7 µM
Nc1ccn([C@H]2CC[C@@H](CO)O2)c(=O)n1 [ZALCITABINE]	< 10 µM

Tell me the measured CC50 of CC(C)OC(=O)CCc1ccccc1OP(=O)(N[C@@H](C)C(=O)OC(C)C)OC[C@H]1O[C@@H](n2cnc3c(N)nc(N)nc32)[C@](C)(O)[C@H]1O (some centres not stated) , please.
> 50 µM

Next molecule: CCOC(=O)[C@H](C)NP(=O)(OC[C@H]1O[C@@H](n2cnc3c(N)nc(N)nc32)[C@](C)(O)[C@@H]1O)Oc1ccccc1 (some centres not stated)
> 50 µM
